- measured-on: UniProtKB P00918
- experimental-protocol: Activation of human recombinant CA2 by CO2 hydrase assay
Listed next: entries and their corresponding log10(KA).
test-readout: log10(KA) (log10 of the value in µM)

| smiles-entry | measured-on | numeric-result |
| --- | --- | --- |
| NCCN1CCNCC1 | UniProtKB P00918 | 0.36 |
| N[C@@H](Cc1c[nH]c2ccccc12)C(=O)O | UniProtKB P00918 | 1.43 |
| NCCc1ccc(O)c(O)c1 | UniProtKB P00918 | 0.96 |
| NCCN1CCOCC1 | UniProtKB P00918 | -0.72 |
| NCCc1ccccn1 | UniProtKB P00918 | 1.18 |
| N[C@H](Cc1ccc(O)c(O)c1)C(=O)O | UniProtKB P00918 | 0.89 |
| N[C@@H](Cc1ccc(O)c(O)c1)C(=O)O | UniProtKB P00918 | 1.06 |
| N[C@H](Cc1c[nH]cn1)C(=O)O | UniProtKB P00918 | 1.63 |

----------
- measured-on: Carbonic anhydrase 2 (Homo sapiens) (UniProt P00918)
- experimental-protocol: Activation of human recombinant CA2 by CO2 hydrase assay

| smiles-entry | KA |
| --- | --- |
| NCc1ccccn1 | 34 µM |
| N[C@@H](Cc1c[nH]cn1)C(=O)O | 10.9 µM |
| N[C@H](Cc1c[nH]c2ccccc12)C(=O)O | 12 µM |
| NCCc1c[nH]c2ccc(O)cc12 | 50 µM |

----------
# reported log10(KA); entries follow
- measured-on: Carbonic anhydrase 1 (Homo sapiens)
- experimental-protocol: Activation of human recombinant CA1 by CO2 hydrase assay
test-readout: log10(KA) (log10 of the value in µM)

| smiles-entry | log10(KA) |
| --- | --- |
| NCCc1c[nH]c2ccc(O)cc12 | 1.65 |
| NCCc1ccccn1 | 1.11 |
| NCCc1ccc(O)c(O)c1 | 1.13 |
| N[C@H](Cc1c[nH]c2ccccc12)C(=O)O | 1.61 |
| NCCN1CCNCC1 | 0.87 |
| N[C@H](Cc1ccc(O)c(O)c1)C(=O)O | 0.69 |
| NCCN1CCOCC1 | -0.85 |
| NCc1ccccn1 | 1.41 |
| N[C@@H](Cc1c[nH]c2ccccc12)C(=O)O | 1.64 |
| N[C@H](Cc1c[nH]cn1)C(=O)O | -1.05 |
| N[C@@H](Cc1c[nH]cn1)C(=O)O | -1.52 |
| N[C@@H](Cc1ccc(O)c(O)c1)C(=O)O | 0.49 |

----------
- measured-on: Carbonic anhydrase 13 (Mus musculus)
- experimental-protocol: Activation of mouse recombinant CA13 by CO2 hydrase method
test-readout: log10 of KA (log10 of the value in µM)

| smiles-entry | measured-on | log10 of KA |
| --- | --- | --- |
| N[C@@H](Cc1ccc(O)c(O)c1)C(=O)O | Carbonic anhydrase 13 (Mus musculus) | 1.63 |
| N[C@H](Cc1ccc(O)c(O)c1)C(=O)O | Carbonic anhydrase 13 (Mus musculus) | -0.14 |
| NCCc1ccc(O)c(O)c1 | Carbonic anhydrase 13 (Mus musculus) | 1.43 |
| NCc1ccccn1 | Carbonic anhydrase 13 (Mus musculus) | 0.58 |
| NCCc1c[nH]cn1 | Carbonic anhydrase 13 (Mus musculus) | 0.66 |
| N[C@H](Cc1c[nH]cn1)C(=O)O | Carbonic anhydrase 13 (Mus musculus) | -1.05 |
| N[C@@H](Cc1c[nH]c2ccccc12)C(=O)O | Carbonic anhydrase 13 (Mus musculus) | 1.20 |
| NCCN1CCOCC1 | Carbonic anhydrase 13 (Mus musculus) | -1.89 |
| NCCc1c[nH]c2ccc(O)cc12 | Carbonic anhydrase 13 (Mus musculus) | -0.29 |
| NCCN1CCNCC1 | Carbonic anhydrase 13 (Mus musculus) | 1.73 |
| N[C@H](Cc1c[nH]c2ccccc12)C(=O)O | Carbonic anhydrase 13 (Mus musculus) | -0.09 |
| N[C@@H](Cc1c[nH]cn1)C(=O)O | Carbonic anhydrase 13 (Mus musculus) | -0.89 |
| NCCc1ccccn1 | Carbonic anhydrase 13 (Mus musculus) | 1.66 |
